Here the recorded IC50 is given for each entry.
Test system: JJN-3 (NIK translocated) multiple myeloma cells
protocol_summary: Antiproliferative activity on JJN-3 multiple myeloma cells (CellTiter-Glo, 96 hr), Biological Assay C
Type: cell-based, human
test_conditions: Homo sapiens, JJN-3, 96 h, JJN-3 (NIK translocated) cells, averaged values, read-out: JJN-3 Proliferation inhibition (IC50 (nM))
Method: Determination of Antiproliferative Activity on JJN-3 (NIK Translocated) and KMS12-BM (NIK WT) Multiple Myeloma Cells All compounds tested were dissolved in DMSO and further dilutions were made in culture medium. Final DMSO concentration was 0.3% (v/v) in cell proliferation assays. Viability was assessed using CellTiter-Glo cell viability assay kit (Promega). […] Luminescence was measured on a HTS Topcount (Perkin Elmer). […]
reported_endpoint: IC50 (nM)

[
  {
    "compound": "COc1ccc(Cl)cc1Nc1ncc(F)c(-c2cc(C#N)c3c(c2)C(C)(CO)CN3)n1 (stereo not shown) [Compound 47]",
    "reported_endpoint": "IC50",
    "output_unit": "nM",
    "result": 776
  },
  {
    "compound": "COc1ccc(Cl)cc1Nc1nccc(-c2cc(C#N)c3c(c2)C(C)(CO)CN3)n1 (stereo not shown) [Compound 33]",
    "reported_endpoint": "IC50",
    "output_unit": "nM",
    "result": 85
  },
  {
    "compound": "CC1(CO)CNc2c(C#N)cc(-c3ccnc(Nc4ccc(OC5CCOCC5)c(C(F)(F)F)c4)n3)cc21 (stereo not shown) [Compound 37]",
    "reported_endpoint": "IC50",
    "output_unit": "nM",
    "result": 17
  },
  {
    "compound": "[2H]C([2H])(O)c1ccc(C)c(Nc2nccc(-c3cc(C#N)c4c(c3)[C@@](C)(CO)CN4)n2)c1 [Compound 150]",
    "reported_endpoint": "IC50",
    "output_unit": "nM",
    "result": 91
  },
  {
    "compound": "[2H]C([2H])(O)c1cc(Nc2nccc(-c3cc(C#N)c4c(c3)[C@@](C)(CO)CN4)n2)c(C)cc1F [Compound 148]",
    "reported_endpoint": "IC50",
    "output_unit": "nM",
    "result": 523
  },
  {
    "compound": "CC1(CO)CNc2c(C#N)cc(-c3ccnc(Nc4cc(Cl)ccc4OC(F)(F)F)n3)cc21 (stereo not shown) [Compound 52]",
    "reported_endpoint": "IC50",
    "output_unit": "nM",
    "result": 676
  },
  {
    "compound": "C[C@]1(CO)CNc2c(C#N)cc(-c3ccnc(Nc4ccc(S(C)(=O)=O)cc4CCC4CC4)n3)cc21 [Compound 2]",
    "reported_endpoint": "IC50",
    "output_unit": "nM",
    "result": 58
  }
]
